The values you see were collected from PubChem BioAssay (NCI).

Tested on: LOX IMVI melanoma
Assay: NCI tumour cell line growth inhibition, 48 h

{"molecule": "O=C=NCCCCCCN1C(=O)N2C(c3ccccc3)N(CCCCCCN=C=O)C(=O)N2C1c1ccccc1 (stereo not drawn)", "TGI": "> 100 µM"}
{"molecule": "Cc1ccc(O)c(C(=O)CCCC(=O)c2cc(C)ccc2O)c1", "TGI": "> 100 µM"}
{"molecule": "O=c1cc(-c2ccc(Cl)cc2)oc2cc(OCCCOc3ccc4c(=O)cc(-c5ccc(Cl)cc5)oc4c3)ccc12", "TGI": "> 100 µM"}

###

Tested on: SR leukemia
Experiment: NCI tumour cell line growth inhibition, 48 h; in the data active = GI50 below about 0.43 µM; inactive = the rest
Outcome codes: active, inactive

{"compound": "CCCCCCCCCCCCOC1C(CNC(=O)C2OC3OC(C)(C)OC3C2NC(=O)CN2CCCCCC2)OC2OC(C)(C)OC21 (configuration not stated)", "assignedCategory": "inactive"}
{"compound": "CCN1C(=O)N(c2ccccc2)C2NN=c3s/c(=C4\\C(=O)N(C(C)C)c5ccccc54)c(=O)n3C21 (configuration not stated)", "assignedCategory": "inactive"}
{"compound": "COc1ccc(C(=O)COc2cccc(/C=C3\\CSc4ccc(C)cc4C3=O)c2)cc1", "assignedCategory": "inactive"}
{"compound": "C#CCOc1cccc(Nc2ncnc3ccc(NC(=O)CCl)cc23)c1", "assignedCategory": "active"}
{"compound": "COc1ccc(-c2c(-c3cc(OC)c4c(c3)OCO4)noc2N)cc1", "assignedCategory": "active"}
{"compound": "C/C(=C\\c1ccc(Cl)c(Cl)c1)[N+](=O)[O-]", "assignedCategory": "inactive"}
{"compound": "O=C(O)C1(Cc2cccc(Nc3nccs3)n2)CCC(Oc2cccc(Cl)c2F)CC1 (configuration not stated)", "assignedCategory": "active"}

###

Test system: LOX IMVI melanoma
Assay: NCI tumour cell line growth inhibition, 48 h; in the data active = GI50 below about 0.43 µM; inactive = the rest
Labels: Yes for active, No for inactive

{"compound": "Nc1nc(N)c2nc(CNc3ccc(C(=O)NC(CCCNC(=O)c4ccccc4C(=O)O)C(=O)O)cc3)cnc2n1 (stereo not given)", "assignedCategory": "Yes"}
{"compound": "Cc1nc(N)sc1C(=O)Nc1cc(C(=O)NCCCN(C)C)n(C)c1", "assignedCategory": "No"}
{"compound": "CCC(C(=O)[O-])C(=O)[O-].CCC(C(=O)[O-])C(=O)[O-].N.N.NCCCCCCN.[Pt+4].[Pt+4]", "assignedCategory": "No"}
{"compound": "C[C@H]1C(Oc2ccc(O)cc2)OC2OC3(C)CCC4[C@H](C)CCC1C24OO3 (stereo not given in full)", "assignedCategory": "No"}
{"compound": "COc1ccc(-c2csc(-c3cc(Cl)cc(Cl)c3Cl)n2)cc1", "assignedCategory": "No"}

###

Test system: HS 578T breast
Assay: NCI tumour cell line growth inhibition, 48 h
Recorded measurements of TGI, one per entry

{"compound": "CSc1ccc(/C=C/c2ccnc3ccccc23)cc1", "TGI": "43.4 µM"}
{"compound": "COc1ccc(C(=O)COc2cccc(/C=C3\\CSc4ccc(C)cc4C3=O)c2)cc1", "TGI": "> 100 µM"}
{"compound": "C/C(Cc1ccc(Cl)cc1)=C(/c1ccc(Cl)cc1)c1ccc(OCCN(C)C)cc1", "TGI": "11 µM"}
{"compound": "O=C(O)c1ccccc1/C=N/NC1=NCCCCN1", "TGI": "> 100 µM"}
{"compound": "COc1ccc(C2SC(C)C(=O)N2c2nc(-c3nc(-c4ccc(Cl)cc4)cs3)cs2)cc1 (stereo unspecified)", "TGI": "> 100 µM"}
{"compound": "O=C1/C(=C/c2ccco2)N=C(c2ccccc2)N1c1cc2cc(Sc3ccccc3)ccc2[nH]1", "TGI": "> 25 µM"}

###

Tested on: MDA-MB-435
Assay: NCI tumour cell line growth inhibition, 48 h

{"compound": "O=C(CCCCCCSc1nc(-c2ccc(Cl)cc2)cc(-c2ccc(Cl)cc2)n1)NO", "inequalityOperator": "=", "TGI / µM": 13.6}
{"compound": "CCCCCCCN1C(=O)C(O)(c2ccc(C3(O)C(=O)N(CCCCCCC)c4ccccc43)s2)c2ccccc21 (configuration not stated)", "inequalityOperator": "=", "TGI / µM": 3.87}
{"compound": "COc1cc2nc3cc([N+](=O)[O-])ccc3c(NCCCNCC(C)(C)O)c2cc1OC", "inequalityOperator": "=", "TGI / µM": 1.55}
{"compound": "CCOC(=O)c1cnc(-n2[nH]c3c(c2=O)CCCC3)[nH]c1=O", "inequalityOperator": ">", "TGI / µM": 100}
{"compound": "COc1cccc2[nH]c(-c3ccccn3)nc12", "inequalityOperator": ">", "TGI / µM": 100}
{"compound": "C=CC[C@@]1(C)CCCCCCCCC[C@@](C)(CC=C)C1=O", "inequalityOperator": ">", "TGI / µM": 100}
{"compound": "N#CCCN(CCN(C(=O)Nc1ccccc1)c1ccccc1)C(=O)Nc1ccccc1", "inequalityOperator": ">", "TGI / µM": 100}

###

Examples of compounds with documented TGI follow.
Tested on: NCI-H522 lung
Assay: NCI tumour cell line growth inhibition, 48 h
readoutName: TGI

{"compoundSmiles": "O=[N+]([O-])/C(C(Cl)=C(Cl)Cl)=C(/Sc1ccccc1)N1CCCCC1", "val": "> 100 µM"}
{"compoundSmiles": "COc1cc(/C=C2/C(=O)N(C(=O)c3ccc(Cl)cc3)N=C2C)cc(OC)c1OC", "val": "> 100 µM"}
{"compoundSmiles": "CSc1nc2[nH]c(=O)c(C)nc2c(=O)[nH]1", "val": "> 100 µM"}
{"compoundSmiles": "COc1ccc(-c2cc(-c3cc(OC)c(OC)c(OC)c3)c(C#N)c(N3CCOCC3)n2)cc1O", "val": "> 53.6 µM"}
{"compoundSmiles": "O=C(O)c1ccccc1/C=N/NC1=NCCCCN1", "val": "> 100 µM"}
{"compoundSmiles": "O=c1[nH]n(Cc2ccccn2)c2ccc([N+](=O)[O-])cc12", "val": "> 100 µM"}

###

System: NCI-H226 lung
Assay: NCI tumour cell line growth inhibition, 48 h
The reader will find reported TGI values listed item by item below.

{"compoundSmiles": "Cn1c(=S)c2[nH]c(SCCN3CCCC3)nc2n(C)c1=O", "TGI": "> 100 µM"}
{"compoundSmiles": "CC(=O)[O][Hg][c]1ccccc1", "TGI": "4.81 µM"}
{"compoundSmiles": "c1ccc(C[n+]2cccc(-c3cc4ccccc4[nH]3)c2)cc1", "TGI": "> 100 µM"}
{"compoundSmiles": "CNCCCNc1nc2ccccc2c2c(=O)c3cc(Cl)ccc3sc12", "TGI": "47.1 µM"}
{"compoundSmiles": "NC(=O)/C=C/NC(=O)/C=N\\O", "TGI": "> 100 µM"}
{"compoundSmiles": "O=C(O)c1oc(C(=O)O)c(C(=O)O)c1C(=O)O", "TGI": "> 100 µM"}
{"compoundSmiles": "NCCN1CC2CCC(CC2)C1", "TGI": "> 10 µM"}
{"compoundSmiles": "Cc1ccsc1/C=N/Nc1nncc2ccccc12", "TGI": "> 100 µM"}
{"compoundSmiles": "NC(=O)NC(=O)c1cccc(NC(=O)CBr)c1", "TGI": "0.067 µM"}
{"compoundSmiles": "O=C([O-])c1ccc(C(=O)[O-])cc1.O=C([O-])c1ccc(C(=O)[O-])cc1.[Mo+2].[Mo+2]", "TGI": "> 100 µM"}
{"compoundSmiles": "O=C(CCCCCCSc1nc(-c2ccc(Cl)cc2)cc(-c2ccc(Cl)cc2)n1)NO", "TGI": "17.5 µM"}

###

Test system: NCI-H522 lung
Test: NCI tumour cell line growth inhibition, 48 h; in the data active = GI50 below about 0.43 µM; inactive = the rest
Outcomes: 1.0 for active, 0.0 for inactive

{"compound": "C#Cc1cccc(Nc2nc3ccc([N+](=O)[O-])cc3nc2Nc2cccc(C#C)c2)c1", "assignedCategory": 1.0}
{"compound": "COc1ccc2c(c1)[n+](=O)c(C(=O)/C=C/c1cc(OC)c(OC)c(OC)c1)c(C)n2[O-]", "assignedCategory": 0.0}
{"compound": "Cc1nc2n(c(=O)c1CCN1CCC(c3noc4cc(F)ccc34)CC1)CCCC2", "assignedCategory": 0.0}
{"compound": "CCC1CCc2nc3sc(C(=O)Nc4ccccc4C)c(N)c3cc2C1 (stereo unspecified)", "assignedCategory": 0.0}
{"compound": "COc1ccc(C(=O)c2cc3c(N)c(C(=O)Nc4cccc(Cl)c4C)sc3nc2C)cc1", "assignedCategory": 1.0}
{"compound": "C#CCOc1cccc(Nc2ncnc3ccc(NC(=O)CCl)cc23)c1", "assignedCategory": 0.0}
{"compound": "C/C(Cc1ccc(Cl)cc1)=C(/c1ccc(Cl)cc1)c1ccc(OCCN(C)C)cc1", "assignedCategory": 0.0}
{"compound": "CCN1C(=O)N(c2ccccc2)C2NN=c3s/c(=C4\\C(=O)N(C(C)C)c5ccccc54)c(=O)n3C21 (stereo unspecified)", "assignedCategory": 0.0}
{"compound": "O=C(c1ccccc1)c1nc2ccc(C(F)(F)F)cc2[n+]([O-])c1C(F)(F)F", "assignedCategory": 0.0}
{"compound": "COc1ccc(-c2cc(-c3cc(OC)c(OC)c(OC)c3)c(C#N)c(N3CCOCC3)n2)cc1O", "assignedCategory": 0.0}
{"compound": "COc1ccc(-c2ccc(/C=N/n3c(C)nn(CN4CCN(C)CC4)c3=S)o2)c([N+](=O)[O-])c1", "assignedCategory": 0.0}
